Cited source for all entries: patent US20230035798A1

# IC50, nM soluble LIGHT (5 ng/ml; IL-8 release from HT-29 cells) values compiled below
Target: T1, recombinant human soluble LIGHT, amino acids 74-240 (R&D Systems 664-LI-025) (human, UniProt O43557 74-240)
T1 chain: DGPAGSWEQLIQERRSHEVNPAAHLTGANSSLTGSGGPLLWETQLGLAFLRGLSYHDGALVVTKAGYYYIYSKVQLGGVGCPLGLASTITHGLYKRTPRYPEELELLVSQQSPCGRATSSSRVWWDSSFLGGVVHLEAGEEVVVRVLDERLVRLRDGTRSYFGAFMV
Assay: cell-based or functional assay

* 3C10 (antibody, human IgG4, V domains shown, chimeric human IgG4 (S-to-P, L-to-E at 248), human CL; also called Parental 3C10) VH: EVQLQQSGAELVRPGASVTLSCKASDYTFTDSEIHWVKQTPVHGLEWIGEIDPETGGTAYNQKFKGKATLTADKSSSTAYMELRSLTSEDSAVYYCSRETDYFFDYWGQGTTLTVSS VL: DVVMTQTPAIMSASPGEKVTMTCSASSSVSYMYWYQQKPGSSPRLLIYDTSNLASGVPVRFSGSGSGTSYSLTISRMEAEDAATYYCQQWSSYPLTFGAGTKLELK | > 100 nM
* 3A07 (antibody, human IgG4, V domains shown, chimeric human IgG4 (S-to-P, L-to-E at 248), human CL; also called Parental 3A07) VH: QVQLQQSGAELVRPGAPVTLSCKASDYTFTDSEIHWVKQTPVHGLEWIGEIDPETGGTAYNQKFKGKATLTADKSSSTAYMELRSLTSEDSAVYYCSRETDYFFDYWGQGTTLTVSS VL: ENVLTQSPAIMSASPGEKVTMTCSASSSVSYMYWYQQRPGSSPRLLIYDTSNLASGVPVRFSGSGSGTSYSLTISRMEAEDAATYYCQQWSSYPLTFGSGTKLEIK | > 100 nM

What the record says about 2E08 (antibody, human IgG4, V domains shown, chimeric human IgG4 (S-to-P, L-to-E at 248), human CL; also called Parental 2E08) VH: QVQMKESGAELVRPGVSVKISCKGSGYTFTDYAIHWVKQSHAKTLEWIGVISTYYGDASYNQKFKGKATMTVDKSSSTAYMELARLTSDDSAIYYCARSRGEYGNYDAMDYWGQGTSVTVSS VL: DIVLTQSPASLAVSLGQRATISCKASQSVDYDGDSYMNWYQQKPGQPPKLLIYAASNLESGIPARFSGSGSGTDFTLNIHPVEEEDAATYYCQQSNEDPLTFGAGTKLELK : IC50, nM soluble LIGHT (5 ng/ml; IL-8 release from HT-29 cells) is > 100 nM
